experiment: HIV-1 AD8 envelope cell-cell fusion blockers – cherry-pick, dose response (AID 652062); format: functional, cell-based;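 note: luciferase signal from cell-cell fusion driven by HIV-1 clade B AD8 Env; potency is for inhibitors of fusion seen as a drop in luminescence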
Active and inactive are the calls of the source.
value.kind: AC50

Please review the entries below; each comes with its answer.
Cc1ccc(C(C(=O)NC2CCCCC2)N(C(=O)c2csnn2)C2CCCC2)o1 (stereo unspecified) | 6.08 µM (active)
C[C@@]12CC(=O)NC1N(C(=O)c1cccc(C(F)(F)F)c1)C(c1ccccc1O)C2 (stereo partly specified) | 26.7 µM (active)
COc1ccc(CCN2C(=O)c3[nH]nc(-c4ccccc4O)c3C2c2ccccc2)cc1OC (stereo unspecified) | 0.621 µM (active)
C[C@H]1CN([C@@H](C)CO)S(=O)(=O)c2ccc(Br)cc2O[C@H]1CN(C)S(=O)(=O)c1ccc(F)cc1 | 29.7 µM (active)
COc1ccc2nc(Nc3nc(O)cc(CSc4nc5ccccc5[nH]4)n3)nc(C)c2c1 | 4 µM (active)

API: the following record is the query input.
GET /value?item= `Cc1cc(C)c2nc(C(F)(F)F)nc(N3CCN(C(=O)c4ccco4)CC3)c2c1` &field=AC50 returns 25.7 µM (active)

====

Listing of recorded AC50 by entry.
target: UniProt:P05177
Sequence (P05177 whole entry): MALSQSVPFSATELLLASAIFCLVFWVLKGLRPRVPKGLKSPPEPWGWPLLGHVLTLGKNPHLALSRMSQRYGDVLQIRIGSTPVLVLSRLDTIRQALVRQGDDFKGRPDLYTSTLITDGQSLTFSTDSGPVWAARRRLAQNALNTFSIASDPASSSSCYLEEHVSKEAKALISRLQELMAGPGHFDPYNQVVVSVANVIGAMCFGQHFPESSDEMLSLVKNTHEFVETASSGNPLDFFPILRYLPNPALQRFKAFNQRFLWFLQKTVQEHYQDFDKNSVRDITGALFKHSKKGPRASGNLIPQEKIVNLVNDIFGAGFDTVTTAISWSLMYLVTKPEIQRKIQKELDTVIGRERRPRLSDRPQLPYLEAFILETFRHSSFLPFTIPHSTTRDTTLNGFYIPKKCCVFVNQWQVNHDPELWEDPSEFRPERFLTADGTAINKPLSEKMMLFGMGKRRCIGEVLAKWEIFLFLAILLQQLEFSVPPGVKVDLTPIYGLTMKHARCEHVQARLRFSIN

Observe how each entry below is paired with its result.
COc1ccc(Br)cc1/C=C/C(=O)Nc1c(C)cccc1C | 22.4 µM (inconclusive)
COc1ccc(/C=C(\C#N)C(=O)NCC2CCCO2)cc1OC (centres undefined) | 22.4 µM (inconclusive)
O=C(c1cccc(F)c1)N1CCC2(CC1)CN(c1cccc(-c3ccccc3)c1)C2 | 12.6 µM (inconclusive)
Cc1noc(C)c1-c1cncnc1NCc1ccccc1 | 25.1 µM (inconclusive)
Cc1cccc(-n2nnc3cnn(C)c3c2=O)c1 | 12.6 µM (inconclusive)
COc1ccc(NC(=O)c2ccc(-c3ccc(-c4noc(C)n4)cc3C)cc2)cc1OCCN(C)C | 39.8 µM (inconclusive)
COc1ccccc1CN(Cc1cc2cc(C)cc(C)c2nc1O)Cc1nnnn1CC1CCCO1 (centres undefined) | 20 µM (inconclusive)
CCCC[C@H]1C(=O)N(c2ccccc2)N(c2ccc(O)cc2)C1=O | 0.001 µM (inconclusive)

Response field AC50 (UniProt:P05177) for item `Cc1ccc(C)c(NC(=N)Nc2nc(C)cc(C)n2)c1` : 14.1 µM (inconclusive)

Item `CC[C@](N)(CCC(=O)O)C(=O)O` ; assay system UniProt:P05177; AC50 reported as 20 µM (inconclusive)

Kindly note: UniProt:P05177, `CC(C)N1C(=O)/C(=C\c2c[nH]c3ccccc23)S/C1=N\c1ccccc1` , AC50 value reported: 4.47 µM (inconclusive)

Field AC50 (system: UniProt:P05177) for entry N[C@H](CCC(=O)O)C(=O)O [D-GLUTAMATE] = 31.6 µM (inconclusive)

For `COc1ccc(Oc2ncc3nc(CCc4ccccc4)c(=O)n(CCC#N)c3n2)cc1` on UniProt:P05177, measured AC50 was 6.31 µM (inconclusive)

Response field AC50 (UniProt:P05177) for item `CCN(CCCl)Cc1ccccc1Br` : 15.8 µM (inconclusive)

The molecule Cc1ccc(C(=O)C2=C(O)C(=O)N(CCCn3ccnc3)C2c2ccc(OC(C)C)cc2)o1 (centres undefined) , tested on UniProt:P05177, showed AC50 of 39.8 µM (inconclusive)

====

target: Polyadenylate-binding protein 1 (Homo sapiens); assay: blockers of PABP interaction with poly(A) – biochemical, fluorescence polarization, […] (AID 2014)
Sequence (P11940 whole entry): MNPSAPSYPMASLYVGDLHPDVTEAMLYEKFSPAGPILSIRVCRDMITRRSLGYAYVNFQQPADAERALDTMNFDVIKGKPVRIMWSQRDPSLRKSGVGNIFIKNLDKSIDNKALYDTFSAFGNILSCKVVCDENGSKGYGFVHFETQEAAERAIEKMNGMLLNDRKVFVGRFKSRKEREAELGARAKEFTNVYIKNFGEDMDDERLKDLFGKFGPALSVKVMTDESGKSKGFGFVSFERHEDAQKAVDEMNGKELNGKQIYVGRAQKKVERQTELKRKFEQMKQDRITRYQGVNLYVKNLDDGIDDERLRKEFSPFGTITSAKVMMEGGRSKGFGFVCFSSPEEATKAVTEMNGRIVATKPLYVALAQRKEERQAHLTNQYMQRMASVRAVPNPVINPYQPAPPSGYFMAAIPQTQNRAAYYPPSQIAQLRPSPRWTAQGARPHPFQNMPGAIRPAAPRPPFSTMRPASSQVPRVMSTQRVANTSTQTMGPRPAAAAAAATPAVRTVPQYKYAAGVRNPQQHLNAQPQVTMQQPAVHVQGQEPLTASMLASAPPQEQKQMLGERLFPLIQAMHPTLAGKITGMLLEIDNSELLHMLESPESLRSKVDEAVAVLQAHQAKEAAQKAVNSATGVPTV
The source made the active and inactive calls.
Thanks in advance; please answer with one of these: Y for active, N for inactive

Cc1ccc(C(=O)OCC(=O)NC2CCCCC2)o1 | Y
Cc1ccccc1SCC(=O)N1CCN(c2ccc(C(F)(F)F)cn2)CC1 | N
O=C(CCS(=O)(=O)c1ccc(Br)cc1)N1CCN(c2ccc(F)cc2)CC1 | N

Here is the next item to consider.
[in] # outcome recorded in this test, key = `CN(CC(=O)NC(=O)NCc1ccco1)CC(=O)Nc1ccccc1Cl`
[out] Y

====

Molecular target: UniProt:P34707
Sequence (P34707 whole entry): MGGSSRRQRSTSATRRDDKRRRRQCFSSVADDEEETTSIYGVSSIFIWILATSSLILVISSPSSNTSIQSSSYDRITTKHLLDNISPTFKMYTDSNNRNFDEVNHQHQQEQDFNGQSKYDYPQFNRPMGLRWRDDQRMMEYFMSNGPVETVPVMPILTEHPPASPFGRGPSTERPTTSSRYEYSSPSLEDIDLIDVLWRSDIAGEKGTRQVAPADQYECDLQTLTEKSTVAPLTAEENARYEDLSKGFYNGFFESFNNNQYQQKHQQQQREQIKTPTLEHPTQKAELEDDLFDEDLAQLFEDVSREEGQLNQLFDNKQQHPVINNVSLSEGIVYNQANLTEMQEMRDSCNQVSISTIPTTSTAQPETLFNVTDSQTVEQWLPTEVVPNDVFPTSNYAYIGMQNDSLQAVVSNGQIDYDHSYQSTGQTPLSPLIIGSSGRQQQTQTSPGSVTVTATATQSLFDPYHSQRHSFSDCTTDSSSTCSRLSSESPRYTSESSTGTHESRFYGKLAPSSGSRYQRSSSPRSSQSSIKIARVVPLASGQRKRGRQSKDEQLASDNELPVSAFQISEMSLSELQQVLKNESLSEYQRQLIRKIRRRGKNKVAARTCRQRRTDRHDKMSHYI
Type: functional
Active and inactive are the calls of the source.
value.kind: IC50

Example results:
COc1ccc(/C=C(\C#N)C(=O)NCC2CCCO2)cc1OC (stereo unspecified) | > 100 µM (inactive)
O=C1/C(=C\c2ccc(C(F)(F)F)cc2)CSc2sccc21 | 69.4 µM (inactive)
O=C(/C=C/Nc1ccccc1)c1ccccc1 | > 100 µM (inactive)
COc1ccc(-c2cc(C(=O)Nc3c(C)n(C)n(-c4ccccc4)c3=O)c3ccccc3n2)c(OC)c1 | > 100 µM (inactive)
COc1ccc(CNC(C)C(=O)Nc2ccc3ccccc3c2)cc1OC (stereo unspecified) | > 100 µM (inactive)

# ---- query molecule ----
// IC50 lookup, molecule = `O=C(Nc1nc(-c2ccccc2)cs1)c1cccs1` , result: 59.9 µM (inactive)

====

In this section we review reported EC50 values for a set of molecules.
Target: Protein RecA (Mycobacterium tuberculosis)
Sequence (P9WHJ3 whole entry): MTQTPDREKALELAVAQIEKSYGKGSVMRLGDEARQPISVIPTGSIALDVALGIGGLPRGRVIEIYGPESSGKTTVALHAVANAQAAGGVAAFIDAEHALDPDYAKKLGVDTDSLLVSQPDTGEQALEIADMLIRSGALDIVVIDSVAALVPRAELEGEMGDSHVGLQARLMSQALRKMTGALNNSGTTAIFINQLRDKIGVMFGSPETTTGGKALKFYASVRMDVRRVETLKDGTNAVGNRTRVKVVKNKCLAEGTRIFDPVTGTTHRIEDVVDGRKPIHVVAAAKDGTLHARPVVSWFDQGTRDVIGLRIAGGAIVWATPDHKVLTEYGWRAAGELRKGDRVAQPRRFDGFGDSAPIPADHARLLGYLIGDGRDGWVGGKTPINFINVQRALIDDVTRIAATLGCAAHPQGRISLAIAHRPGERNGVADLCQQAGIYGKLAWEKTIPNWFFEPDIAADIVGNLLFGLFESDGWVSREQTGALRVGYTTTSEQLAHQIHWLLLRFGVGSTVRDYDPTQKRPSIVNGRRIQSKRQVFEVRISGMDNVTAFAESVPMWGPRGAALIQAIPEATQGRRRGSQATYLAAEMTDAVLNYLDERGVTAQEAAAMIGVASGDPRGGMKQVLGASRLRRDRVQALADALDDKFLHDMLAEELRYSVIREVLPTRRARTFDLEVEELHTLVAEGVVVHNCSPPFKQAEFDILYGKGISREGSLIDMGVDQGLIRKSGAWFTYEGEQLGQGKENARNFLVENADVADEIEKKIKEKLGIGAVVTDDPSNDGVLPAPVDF
Assay: Fluorescence Cell-Free Homogeneous Dose Retest to Identify Inhibitors of RecA-Intein Splicing Activity. [Related pubchem assays (depositor defined):AID2097, AID2223, AID489010, AID492950]
Format: functional
The source made the active and inactive calls.

Example cases with answers are listed next.
Cc1ccc(C)c(-c2ccc(=O)n(Cc3cccc(Br)c3)n2)c1 | 24.1 µM (active)
COc1ccc(-c2cc(=O)[nH][nH]2)cc1 | 0.444 µM (active)
Cc1ccccc1CS(=O)(=O)c1ncc(Cl)c(C(=O)Nc2ccc(F)cc2)n1 | 2.79 µM (active)
CS(=O)(=O)c1ncc(Cl)c(C(=O)Nc2ccc3ccccc3c2)n1 | 4.84 µM (active)

Would you kindly look at the next entry?
The molecule O=C1NC(c2ccc(-c3ccccc3[N+](=O)[O-])o2)C(C(=O)c2ccc(F)cc2)C(O)(C(F)(F)F)N1 (stereo not given) showed EC50 equal to > 380 µM (inconclusive)

src = ChEMBL document CHEMBL1201862
